Test system: Streptococcus pneumoniae
Protocol: Antibacterial activity against Streptococcus pneumoniae MTCC 1936 after 24 to 48 hr by broth microdilution method
Type: functional
Quantity kind: MIC (µg/mL)

* N#CC1=C(N)OC2=C(C(=O)CCC2)C1c1c(-c2ccc(Cl)cc2)[nH]c2ccccc12 (stereo unspecified) | 200
* N#CC1=C(N)OC2=C(C(=O)CCC2)C1c1c(-c2ccc(Br)cc2)[nH]c2ccccc12 (stereo unspecified) | 100
* O=C(O)c1cn(C2CC2)c2cc(N3CCNCC3)c(F)cc2c1=O | 50
* CC1(C)S[C@@H]2[C@H](NC(=O)[C@H](N)c3ccccc3)C(=O)N2[C@H]1C(=O)O | 100
* Cc1ccc(-c2[nH]c3ccccc3c2C2C(C#N)=C(N)OC3=C2C(=O)CC(C)(C)C3)cc1 (stereo unspecified) | 200
* N#CC1=C(N)OC2=C(C(=O)CCC2)C1c1c(-c2ccc(F)cc2)[nH]c2ccccc12 (stereo unspecified) | 200
* CC1(C)CC(=O)C2=C(C1)OC(N)=C(C#N)C2c1c(-c2ccc(Cl)cc2)[nH]c2ccccc12 (stereo unspecified) | 250
* N#CC1=C(N)OC2=C(C(=O)CCC2)C1c1c(-c2ccccc2)[nH]c2ccccc12 (stereo unspecified) | 500
* COc1ccc(-c2[nH]c3ccccc3c2C2C(C#N)=C(N)OC3=C2C(=O)CC(C)(C)C3)cc1 (stereo unspecified) | 500
* Cc1ccc(-c2[nH]c3ccccc3c2C2C(C#N)=C(N)OC3=C2C(=O)CCC3)cc1 (stereo unspecified) | 500
* COc1ccc(-c2[nH]c3ccccc3c2C2C(C#N)=C(N)OC3=C2C(=O)CCC3)cc1 (stereo unspecified) | 200

----------
Test system: Streptococcus pneumoniae
Protocol: Antibacterial activity against Streptococcus pneumoniae MTCC 1936 after 24 to 48 hr by broth microdilution method
Type: functional
Quantity kind: MIC (µg/mL)

• CC1(C)CC(=O)C2=C(C1)OC(N)=C(C#N)C2c1c(-c2ccc([N+](=O)[O-])cc2)[nH]c2ccccc12 (stereo not drawn) = 250
• CC1(C)CC(=O)C2=C(C1)OC(N)=C(C#N)C2c1c(-c2ccc(S(C)(=O)=O)cc2)[nH]c2ccccc12 (stereo not drawn) = 500
• N#CC1=C(N)OC2=C(C(=O)CCC2)C1c1c(-c2ccc([N+](=O)[O-])cc2)[nH]c2ccccc12 (stereo not drawn) = 250
• CC1(C)CC(=O)C2=C(C1)OC(N)=C(C#N)C2c1c(-c2ccc(Br)cc2)[nH]c2ccccc12 (stereo not drawn) = 125
• CCn1cc(C(=O)O)c(=O)c2cc(F)c(N3CCNCC3)cc21 [NORFLOXACIN] = 10
• CC1(C)CC(=O)C2=C(C1)OC(N)=C(C#N)C2c1c(-c2ccccc2)[nH]c2ccccc12 (stereo not drawn) = 200
• CS(=O)(=O)c1ccc(-c2[nH]c3ccccc3c2C2C(C#N)=C(N)OC3=C2C(=O)CCC3)cc1 (stereo not drawn) = 500
• CC1(C)CC(=O)C2=C(C1)OC(N)=C(C#N)C2c1c(-c2ccc(F)cc2)[nH]c2ccccc12 (stereo not drawn) = 200

----------
Tested on: Escherichia coli
Protocol: Antibacterial activity against Escherichia coli MTCC 443 after 24 to 48 hr by broth microdilution method
Format: functional
Quantity kind: log10(MIC) (log10 of the value in µg/mL)

- CC1(C)CC(=O)C2=C(C1)OC(N)=C(C#N)C2c1c(-c2ccccc2)[nH]c2ccccc12 (stereo unspecified): 2.70
- N#CC1=C(N)OC2=C(C(=O)CCC2)C1c1c(-c2ccc(Br)cc2)[nH]c2ccccc12 (stereo unspecified): 2.10
- CCn1cc(C(=O)O)c(=O)c2cc(F)c(N3CCNCC3)cc21: 1.00
- CC1(C)CC(=O)C2=C(C1)OC(N)=C(C#N)C2c1c(-c2ccc(F)cc2)[nH]c2ccccc12 (stereo unspecified): 2.30
- CC1(C)CC(=O)C2=C(C1)OC(N)=C(C#N)C2c1c(-c2ccc([N+](=O)[O-])cc2)[nH]c2ccccc12 (stereo unspecified): 2.40
- N#CC1=C(N)OC2=C(C(=O)CCC2)C1c1c(-c2ccccc2)[nH]c2ccccc12 (stereo unspecified): 2.70
- O=C(O)c1cn(C2CC2)c2cc(N3CCNCC3)c(F)cc2c1=O: 1.40
- N#CC1=C(N)OC2=C(C(=O)CCC2)C1c1c(-c2ccc(F)cc2)[nH]c2ccccc12 (stereo unspecified): 2.70
- COc1ccc(-c2[nH]c3ccccc3c2C2C(C#N)=C(N)OC3=C2C(=O)CC(C)(C)C3)cc1 (stereo unspecified): 2.70
- Cc1ccc(-c2[nH]c3ccccc3c2C2C(C#N)=C(N)OC3=C2C(=O)CCC3)cc1 (stereo unspecified): 2.30
- N#CC1=C(N)OC2=C(C(=O)CCC2)C1c1c(-c2ccc([N+](=O)[O-])cc2)[nH]c2ccccc12 (stereo unspecified): 2.70
